- assay.target: mouse RORγ (Mus musculus, UniProt P51450)
- Construct: mouse, NM_011281.2 and from Ile251 to Lys516; expressed in transfected cells; host or cells: CHO cells (transient co-transfection with pG5-Luc reporter)
- Sequence (P51450 251-516): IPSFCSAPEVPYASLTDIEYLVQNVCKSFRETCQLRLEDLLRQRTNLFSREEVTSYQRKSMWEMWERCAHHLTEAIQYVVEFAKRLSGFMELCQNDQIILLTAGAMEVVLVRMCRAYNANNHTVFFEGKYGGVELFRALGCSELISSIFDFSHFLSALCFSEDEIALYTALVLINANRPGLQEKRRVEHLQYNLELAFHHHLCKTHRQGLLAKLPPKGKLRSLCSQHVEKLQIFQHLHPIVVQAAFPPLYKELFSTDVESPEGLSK
- assay.summary: Luciferase reporter gene assay of inhibitory effect against RORγ transcriptional activity (GAL4-mRORγ plasmid in CHO cells)
- Type: cell-based
- test.conditions: read-out: LUC EC50 (μM) mRORg
Field: EC50. Provide a value for each of the compounds that follow.

Solved cases (5 shown):
{"compound": "Cc1ccc(NC(=O)C[C@H](CCC(=O)O)c2noc(-c3cc(C4(CC(C)C)CC4)on3)c2C2CC2)c(Cl)c1", "EC50": "< 3 µM"}
{"compound": "Cc1c(Cl)cccc1NC(=O)CCc1nnc(CC(C)C(C)C)n1C1CC1 (racemic)", "EC50": "< 3 µM"}
{"compound": "COc1cc(C)ccc1CNC(=O)CC(CCO)c1nnc(CCC(C)C)n1C1CC1 (racemic)", "EC50": "> 3 µM"}
{"compound": "CC(=O)N1C[C@H](C(=O)Nc2ccc(C)cc2C)[C@@H](c2nnc(CCC3CCCCC3)n2C2CC2)C1 (racemic) [Example F-191]", "EC50": "< 3 µM"}
{"compound": "CC(=O)N1C[C@@H](C(=O)Nc2ccc(C)cc2C)[C@H](c2nnc(CCCC(C)(C)C)n2C2CC2)C1", "EC50": "> 3 µM"}

# batch: return EC50 for each of the 2 compounds below
1. Cc1cccc(NC(=O)CCc2nnc(CCC(C)C)n2C2CC2)c1C
2. Cc1ccc(NC(=O)[C@H]2CN(C)C(=O)[C@@H]2c2nnc(CCCC(C)(C)C)n2C2CC2)c(C)c1

1: < 3 µM; 2: < 3 µM

---

- assay.target: mouse RORγ (Mus musculus)
- Construct: mouse, NM_011281.2 and from Ile251 to Lys516; expressed in transfected cells; host or cells: CHO cells (transient co-transfection with pG5-Luc reporter)
- assay.summary: Luciferase reporter gene assay of inhibitory effect against RORγ transcriptional activity (GAL4-mRORγ plasmid in CHO cells)
- Assay type: cell-based
- test.conditions: read-out: LUC EC50 mRORg
pEC50: −log10 of the molar value.
reported.metric: pEC50

Solved cases (3 shown):
{"molecule": "CCN(CC)C(=O)CN1C[C@H](C(=O)Nc2ccc(C)cc2C)[C@@H](c2nnc([C@H]3C[C@@H](CC(C)C)C3)n2C2CC2)C1", "assay.target": "mouse RORγ (Mus musculus)", "readout.value": "> 5.52"}
{"molecule": "Cc1ccc(NC(=O)C[C@H](c2nnc([C@H]3C[C@@H](CC(C)C)C3)n2C2CC2)[C@H]2C[C@H](O)C2)c(C)c1", "assay.target": "mouse RORγ (Mus musculus)", "readout.value": "< 5.52"}
{"molecule": "Cc1ccc(NC(=O)CC(CC(=O)N2CCCC2)c2nnc([C@H]3C[C@@H](CC(C)C)C3)n2C2CC2)c(C)c1 (mixture of isomers)", "assay.target": "mouse RORγ (Mus musculus)", "readout.value": "> 5.52"}

# batch: return pEC50 for each of the 3 molecules below
1. C=CCC(CC(=O)Nc1ccc(C)cc1C)c1nnc([C@H]2C[C@@H](CC(C)C)C2)n1C1CC1 (mixture of isomers)
2. Cc1ccc(NC(=O)CCc2noc([C@H]3C[C@@H](CC(C)C)C3)c2/C=C/C(=O)O)c(C)c1
3. Cc1ccc(NC(=O)[C@H]2CC(CO)C[C@@H]2c2nnc([C@H]3C[C@@H](CC(C)C)C3)n2C2CC2)c(C)c1 (single isomer, unassigned)

1: > 5.52; 2: < 5.52; 3: > 5.52

---

Field: EC50. Provide a value for each of the molecules that follow.
- assay.target: human RORγ (Homo sapiens, UniProt P51449)
- Construct: human, NM_005060.3 and from Ser253 to Lys518; expressed in transfected cells; host or cells: CHO cells (transient co-transfection with pG5-Luc reporter)
- Sequence (P51449 253-518): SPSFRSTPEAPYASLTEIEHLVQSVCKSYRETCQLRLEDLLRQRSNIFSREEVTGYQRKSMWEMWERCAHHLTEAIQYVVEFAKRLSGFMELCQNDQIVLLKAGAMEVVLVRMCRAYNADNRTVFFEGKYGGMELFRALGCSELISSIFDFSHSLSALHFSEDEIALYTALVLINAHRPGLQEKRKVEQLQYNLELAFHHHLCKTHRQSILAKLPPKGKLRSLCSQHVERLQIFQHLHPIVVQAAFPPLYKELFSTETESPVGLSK
- assay.summary: Luciferase reporter gene assay of inhibitory effect against RORγ transcriptional activity (GAL4-hRORγ plasmid in CHO cells)
- Format: cell-based
- test.conditions: read-out: LUC EC50 (μM) hRORg

Solved cases (4 shown):
{"molecule": "CC(=O)N1C[C@H](C(=O)Nc2ccc(F)cc2C)[C@@H](c2nnc(CCCC(C)(C)C)n2C2CC2)C1 (racemic)", "EC50": "< 3 µM"}
{"molecule": "Cc1ccc(NC(=O)C[C@H](CCC(=O)O)c2noc(-c3cc(C4CC(C)(C)C4)on3)c2C2CC2)c(Cl)c1", "EC50": "< 3 µM"}
{"molecule": "O=C(O)CC[C@@H](CC(=O)Nc1ccc(F)cc1Cl)c1noc(-c2cc(C3CCCC3)on2)c1C1CC1", "EC50": "< 3 µM"}
{"molecule": "CN[C@@H](CC(=O)Nc1ccc(C)cc1C)c1nnc(CCCC(C)(C)C)n1C1CC1", "EC50": "< 3 µM"}

# batch: return EC50 for each of the 7 molecules below
1. CCn1c(CCC(=O)NCc2ccccc2)nnc1CCC1CCCCC1
2. CCn1c(CCC(=O)Nc2cc(C)cc(C)c2)nnc1CCC1CCCCC1
3. Cc1ccc(NC(=O)C[C@H](N)c2nnc(CCCC(C)(C)C)n2C2CC2)c(C)c1
4. CCn1c(CCC(=O)Nc2cc(C)cc(C)c2)nnc1CCC1CCCC1
5. CC1(Cc2cc(-c3onc([C@@H](CCC(=O)O)CC(=O)Nc4ccc(Cl)cc4F)c3C3CC3)no2)CC1
6. Cc1ccc(NC(=O)C[C@H](CCC(=O)O)c2noc(-c3cc(CC(C)C)[nH]n3)c2C2CC2)c(F)c1
7. Cc1c(Cl)cccc1NC(=O)CC(CO)c1nnc(CCC(C)C)n1C1CC1 (racemic)

> 3 µM
< 3 µM
< 3 µM
> 3 µM
< 3 µM
> 3 µM
< 3 µM

# batch: return EC50 for each of the 3 molecules below
1. Cc1ccc(NC(=O)C[C@H](CC(=O)O)c2noc(-c3cc(C(F)(F)C(C)(C)C)on3)c2C2CC2)c(Cl)c1
2. Cc1ccc(NC(=O)C[C@@H](CCO)c2nnc(CCC3CCCCC3)n2C2CC2)c(C)c1
3. Cc1ccc(NC(=O)C[C@H](CCC(=O)O)c2noc(-c3cc(C(F)(F)C4CCCC4)on3)c2C2CC2)c(Cl)c1

["< 3 µM", "> 3 µM", "< 3 µM"]

---

- assay.target: mouse RORγ (Mus musculus, UniProt P51450)
- Construct: mouse, NM_011281.2 and from Ile251 to Lys516; expressed in transfected cells; host or cells: CHO cells (transient co-transfection with pG5-Luc reporter)
- assay.summary: Luciferase reporter gene assay of inhibitory effect against RORγ transcriptional activity (GAL4-mRORγ plasmid in CHO cells)
- Format: cell-based
- test.conditions: read-out: LUC EC50 (μM) mRORg
reported.metric: EC50

Solved cases (3 shown):
{"molecule": "CC(C)(C)C(F)(F)c1cc(-c2onc([C@@H](CCC(=O)O)CC(=O)Nc3ccc(Cl)cc3F)c2C(F)F)no1", "EC50": "< 3 µM"}
{"molecule": "Cc1ccc(NC(=O)CC(Cc2nnn[nH]2)c2nnc([C@H]3C[C@@H](CC(C)C)C3)n2C2CC2)c(C)c1 (mixture of isomers)", "EC50": "> 3 µM"}
{"molecule": "CCC(=O)N1C[C@H](C(=O)Nc2ccc(C)cc2C)[C@@H](c2nnc(CCCC(C)(C)C)n2C2CC2)C1 (racemic)", "EC50": "< 3 µM"}

# batch: return EC50 for each of the 2 molecules below
1. CC(C)CCc1nnc(CCC(=O)Nc2cccc3ccccc23)n1C1CC1
2. COc1cc(C)ccc1CNC(=O)CCc1nnc(CCC2CCCCC2)n1C1CC1

["< 3 µM", "< 3 µM"]

---

Field: EC50. Provide a value for each of the compounds that follow.
- assay.target: mouse RORγ (Mus musculus, UniProt P51450)
- Construct: mouse, NM_011281.2 and from Ile251 to Lys516; expressed in transfected cells; host or cells: CHO cells (transient co-transfection with pG5-Luc reporter)
- assay.summary: Luciferase reporter gene assay of inhibitory effect against RORγ transcriptional activity (GAL4-mRORγ plasmid in CHO cells)
- Format: cell-based
- test.conditions: read-out: LUC EC50 (μM) mRORg

{"compound": "Cc1ccc(NC(=O)CC(CCOCc2ccccc2)c2nnc(-c3cc(CC(C)C)on3)n2C2CC2)c(C)c1 (racemic)", "EC50": "< 3 µM"}

# batch: return EC50 for each of the 2 compounds below
1. CC(=O)N1C[C@H](C(=O)Nc2ccc(C)cc2C)[C@@H](c2nnc(CCC3CC3(C)C)n2C2CC2)C1 (single isomer, unassigned)
2. Cc1ccc(NC(=O)CC(c2nnc(CCCC(C)(C)C)n2C2CC2)C(C)C)c(C)c1 (racemic)

["< 3 µM", "< 3 µM"]

# batch: return EC50 for each of the 2 compounds below
1. CC(=O)N1C[C@H](C(=O)Nc2ccc(C)cc2C)[C@@H](c2nnc([C@H]3C[C@@H](CC(C)(C)C)C3)n2C2CC2)C1
2. Cc1ccc(NC(=O)C[C@@H](c2nnc(CCCC(C)(C)C)n2C2CC2)N(C)C(=O)OCc2ccccc2)c(C)c1

< 3 µM
> 3 µM
